# assay.overview: yeast display, Sf9 membrane polyspecificity reagent, FACS + sequencing; frameworks hold sequencing errors
measured.property: polyreactivity (PSR sort gate)

Some solved entries appear below for comparison.
- query.sequence: "QVQLVESGGGLVQAGGSLRLSCAASGSTFSKYAMGWYRQAPWKESELVASITWSGGSTYYADSVKGRFTISRDNAKNTVYLQMNSLIPEDTAVYYCNVRTIQYNVGRWWEYDYWGQVTQVTVSS"
  value.measured: "low polyreactivity"
- query.sequence: "QVQLVESGGGLVQAGGSLRLSCAASGSTFSRYAMGWYRQAPGKERELVAAISTRGGSTRYADSVKGRFTISRDNAKNTVYLQMNSLKPEDTAVYYCAALGQGRTSATSFVDYEYWGQGTQVTVSS"
  value.measured: "high polyreactivity"
- query.sequence: "QVQLVESGGGLVQAGGSLRLSCAASGIIFSQYAMGWYRQAPGKERELVAGITRSGGSTYYADSVKGRFSISRDNAKNTVYLQMNSLKPDDTAVYYCAAVQRYEYGYWGQGTQVTVSS"
  value.measured: "high polyreactivity"
- query.sequence: "QVKLVESGGGLVQAGASLRLSVAASGNIFSVNTIGTYRQAPGKERELVAAITRRSGRTYYADSVKGRFTISRDNAKNTVFLQMNSLNPEDTAVYYCAASWRGASVIRFDYWGQGTQVTVSS"
  value.measured: "high polyreactivity"

With those in mind, consider the next sequence.
stdin: Return the recorded polyreactivity (PSR sort gate) value; entry: QVQLVESGGGIVQAGGSLRLSCAASGNTFYPYTMGWYRQAPGKERELVADITYIGGDTYYADSVKGRFTISRDNAKNTVYLQMHTLKPEDTAVYYCNAVEVDHDYFYYGQNEYWGQGTQVTVSS
stdout: low polyreactivity

* * *

# assay.overview: yeast display, Sf9 membrane polyspecificity reagent, FACS + sequencing; frameworks hold sequencing errors
measured.property: polyreactivity (PSR sort gate)

Solved entries:
- query.sequence: "QVQLVESGGGLVQAGGSLRLSCAASGSIIWLYAMGWYRQAPGKERELVAAISSGGSTYYADSVKGRFTISRDNAKNTVYLQMNSLKPEDTAVYYCAATYSSFRRYPGAHYRFGYWGQGSQVTVSS"
  value.measured: "high polyreactivity"
- query.sequence: "QVQLVESGGGLVQAGGSLRLSCADSGSIFAYNGMGWKRQAPGKERELVAAISRGGRTSYADSVKGRFTISRDNAKNTVYLQMNSVKPEDTAVYYCNAVYRWFSSAYVYSSGYNGDYWGQGTQVTVSS"
  value.measured: "high polyreactivity"
- query.sequence: "QVKLVESGGGLVQAGRSLRLICAASGFTFHYNSMGWYRQAPGKEREFVAAISGSGDRTYYADSGKGRFTISRDNAKNTVYLQMNSLKPEDTAVYYCATSVRQNYFYSYDYWGQGTQVTVSS"
  value.measured: "high polyreactivity"
- query.sequence: "QVQLVESGGGLVQAGGSLRLSCAASGSIFFDNAMGWYRQAPGKERELVATINSGGNTHYADSVKGRFTISRDNAKNTVYLQMNSLKPEDTAVYSCAADFRSDLVDGYNYWGQGTQVTVSS"
  value.measured: "low polyreactivity"
- query.sequence: "QVPLVESGGGLVQAGGSLRLSCAASGRTFWNYAMGWYRPAPGKERELVAVSRFSDGSTYYADSVKGRFTISRDNAKNTVYLQMNSLKPEDTAVDDGAAKGPRRWGSGFDYWGQGTQVTVSS"
  value.measured: "low polyreactivity"

# context switch: different sequence, same polyreactivity (PSR sort gate)
stdin: Provide one value: measured polyreactivity (PSR sort gate) of QVQLVESGGGLVQAGGSLRLSCAASGSTFYEYAMGWYRQAPGKERELVATINWS
stdout: low polyreactivity
